system: IgE antibodies of the individual allergic patient serum II/12
test-protocol: EAST inhibition, individual serum II/12
measured-endpoint: pIC50
Quick note: pIC50 values are minus log10 of concentrations in mol/L.

Q: So what's the measured pIC50 for this one? rPhl p 5b point mutant PM3 (A13C) (protein) ADAGYAPATPAACGAAAGKATTEEQKLIEDINVGFKAAVAAAASVPAADKFKTFEAAFTSSSKAAAAKAPGLVPKLDAAYSVAYKAAVGATPEAKFDSFVASLTEALRVIAGALEVHAVKPVTEEPGMAKIPAGELQIIDKIDAAFKVAATAAATAPADDKFTVFEAAFNKAIKESTGGAYDTYKCIPSLEAAVKQAYAATVAAAPQVKYAVFEAALTKAITAMSEVQKVSQPATGAATVAAGAATTAAGAASGAATVAAGGYKV
Ans: 7.04

Q: Sample recombinant Phl p 5b (wild type) (protein) ADAGYAPATPAAAGAAAGKATTEEQKLIEDINVGFKAAVAAAASVPAADKFKTFEAAFTSSSKAAAAKAPGLVPKLDAAYSVAYKAAVGATPEAKFDSFVASLTEALRVIAGALEVHAVKPVTEEPGMAKIPAGELQIIDKIDAAFKVAATAAATAPADDKFTVFEAAFNKAIKESTGGAYDTYKCIPSLEAAVKQAYAATVAAAPQVKYAVFEAALTKAITAMSEVQKVSQPATGAATVAAGAATTAAGAASGAATVAAGGYKV — what was its pIC50?
Ans: 7.14

Q: Need pIC50 of rPhl p 5b point mutant PM1 (N32D, D49L, K50A) (protein) ADAGYAPATPAAAGAAAGKATTEEQKLIEDIDVGFKAAVAAAASVPAALAFKTFEAAFTSSSKAAAAKAPGLVPKLDAAYSVAYKAAVGATPEAKFDSFVASLTEALRVIAGALEVHAVKPVTEEPGMAKIPAGELQIIDKIDAAFKVAATAAATAPADDKFTVFEAAFNKAIKESTGGAYDTYKCIPSLEAAVKQAYAATVAAAPQVKYAVFEAALTKAITAMSEVQKVSQPATGAATVAAGAATTAAGAASGAATVAAGGYKV , thanks.
Ans: 7.08
